Each recorded value in this set is attributed to patent US11091451B2.

# TARGET_OR_TEST_SYSTEM: human cytosolic Serine Hydroxymethyl transferase 1 (SHMT1) (Homo sapiens (Human), UniProt P34896)
# Sequence (P34896 whole entry): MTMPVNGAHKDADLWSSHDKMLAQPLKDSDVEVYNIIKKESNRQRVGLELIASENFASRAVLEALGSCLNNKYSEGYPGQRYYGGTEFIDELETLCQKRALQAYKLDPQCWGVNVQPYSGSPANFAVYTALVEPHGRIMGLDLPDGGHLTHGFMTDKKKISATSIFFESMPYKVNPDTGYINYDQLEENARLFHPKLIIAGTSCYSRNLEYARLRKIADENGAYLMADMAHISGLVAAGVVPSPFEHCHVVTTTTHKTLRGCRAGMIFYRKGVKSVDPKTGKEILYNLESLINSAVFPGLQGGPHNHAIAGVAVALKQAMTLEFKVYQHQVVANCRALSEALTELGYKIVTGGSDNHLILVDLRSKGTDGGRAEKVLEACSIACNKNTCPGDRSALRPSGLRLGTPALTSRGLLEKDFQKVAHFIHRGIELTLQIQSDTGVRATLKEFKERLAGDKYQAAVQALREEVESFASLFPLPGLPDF
# ASSAY_TEXT: SHMT1 activity inhibition assay (serine production from glycine and CH2-THF, mass spectroscopy)
# STUDY_CONDITIONS: 60 minutes at room temperature
The molecules listed here are annotated with their IC50.
PROPERTY_MEASURED: IC50

INSERT INTO results (molecule, result) VALUES
  ('O=C(O)CNC(=O)Cc1csc(-c2cccc(Cl)c2Cl)n1 [Compound I-59]', '100 to 500 µM'),
  ('CCc1cc(Cl)ccc1-c1nc(CC(=O)NC(C)(C)C(=O)O)cs1 [Compound I-27]', '10 to 100 µM'),
  ('CC[C@@H](C)[C@H](NC(=O)Cc1csc(-c2ccc(Cl)cc2Cl)n1)C(=O)O [Compound I-67]', '100 to 500 µM'),
  ('CC(C)(NC(=O)Cc1ccnc(-c2ccc(Cl)cc2-c2ccccc2)c1)C(=O)O [Compound I-20]', '1 to 10 µM'),
  ('CC(C)(NC(=O)Cc1csc(-c2ccc(Cl)cc2-c2cccc(Cl)c2)n1)C(=O)O [Compound I-6]', '< 1 µM'),
  ('CC(C)(NC(=O)Cc1csc(-c2ccc(Cl)cc2C2CC2)n1)C(=O)O [Compound I-26]', '10 to 100 µM'),
  ('O=C(Cc1csc(-c2ccc3c(c2)OCCO3)n1)NC1(C(=O)O)CCC1 [Compound I-37]', '10 to 100 µM'),
  ('CC(C)(C(=O)NCC(=O)O)c1csc(-c2ccc(Cl)cc2Cl)n1 [Compound I-64]', '100 to 500 µM');

---

# TARGET_OR_TEST_SYSTEM: UniProtKB P34896
# ASSAY_TEXT: SHMT1 activity inhibition assay (serine production from glycine and CH2-THF, mass spectroscopy)
# STUDY_CONDITIONS: 60 minutes at room temperature
Measured IC50 of individual entries
PROPERTY_MEASURED: IC50

INSERT INTO assay_data (compound, property_measured, result) VALUES
  ('CC(=O)N1CCC(c2cc(Cl)ccc2-c2nc(CC(=O)NC(C)(C)C(=O)O)cs2)CC1', 'IC50', '1 to 10 µM'),
  ('CC(C)(NC(=O)Cc1csc(-c2ccc(Cl)cc2C2CCOCC2)n1)C(=O)O', 'IC50', '1 to 10 µM'),
  ('Cc1ccc(-c2cc(Cl)ccc2-c2cccc(CC(=O)NC(C)(C)C(=O)O)c2)cc1', 'IC50', '< 1 µM'),
  ('O=C(O)CNC(=O)Cc1csc(-c2ccc(OC(F)(F)F)cc2)n1', 'IC50', '100 to 500 µM'),
  ('O=C(O)CNC(=O)C(c1ccccc1)c1csc(-c2ccc(Cl)cc2Cl)n1 (stereo not shown)', 'IC50', '100 to 500 µM'),
  ('O=C(Cc1csc(-c2cccc(Br)c2)n1)N[C@@H](Cc1ccccc1)C(=O)O', 'IC50', '100 to 500 µM'),
  ('O=C(O)CNC(=O)Cc1csc(-c2ccc(Cl)cc2Cl)n1', 'IC50', '10 to 100 µM'),
  ('CC(C)c1cc(Cl)ccc1-c1nc(CC(=O)NC(C)(C)C(=O)O)cs1', 'IC50', '1 to 10 µM'),
  ('CC(C)Cc1cc(Cl)ccc1-c1nc(CC(=O)NC(C)(C)C(=O)O)cs1', 'IC50', '1 to 10 µM'),
  ('CC(C)(NC(=O)Cc1cccc(-c2ccc(Cl)cc2-c2ccccc2)n1)C(=O)O', 'IC50', '1 to 10 µM'),
  ('O=C(Cc1csc(-c2ccccc2Cl)n1)N[C@@H](Cc1ccccc1)C(=O)O', 'IC50', '100 to 500 µM'),
  ('COc1ccc(-c2nc(CC(=O)NC(C)(C)C(=O)O)cs2)c(-c2ccccc2)c1', 'IC50', '1 to 10 µM'),
  ('O=C(Cc1csc(-c2ccc(Cl)cc2Cl)n1)N[C@@H](C(=O)O)c1ccccc1', 'IC50', '100 to 500 µM'),
  ('O=C(Cc1csc(-c2cccc(Br)c2)n1)NC(Cc1ccccc1)C(=O)O (stereo not shown)', 'IC50', '100 to 500 µM'),
  ('CSCC[C@H](NC(=O)Cc1csc(-c2ccc(Cl)cc2Cl)n1)C(=O)O', 'IC50', '100 to 500 µM'),
  ('CC(NC(=O)Cc1csc(-c2cccc(Br)c2)n1)C(=O)O (stereo not shown)', 'IC50', '10 to 100 µM'),
  ('CC(C)(NC(=O)Cc1cncc(-c2ccc(Cl)cc2-c2ccccc2)c1)C(=O)O', 'IC50', '1 to 10 µM'),
  ('O=C(O)CNC(=O)Cc1csc(-c2ccc3c(c2)OCCO3)n1', 'IC50', '100 to 500 µM'),
  ('C[C@H](NC(=O)Cc1csc(-c2ccc(Cl)cc2Cl)n1)C(=O)O', 'IC50', '10 to 100 µM'),
  ('O=C(Cc1csc(-c2cccc(Cl)c2)n1)N[C@@H](Cc1c[nH]c2ccccc12)C(=O)O', 'IC50', '100 to 500 µM'),
  ('CC(C)(NC(=O)Cc1csc(-c2ccc(Cl)cc2Cl)n1)C(=O)O', 'IC50', '1 to 10 µM'),
  ('CC(C)(NC(=O)Cc1cccc(-c2ccc(Cl)cc2)c1)C(=O)O', 'IC50', '10 to 100 µM'),
  ('O=C(O)CNC(=O)Cc1csc(-c2ccc(Cl)cc2-c2ccccc2)n1', 'IC50', '10 to 100 µM'),
  ('O=C(Cc1csc(-c2ccc(Cl)cc2Cl)n1)N[C@@H](Cc1ccccc1)C(=O)O', 'IC50', '10 to 100 µM'),
  ('CC(C)(NC(=O)Cc1csc(-c2ccc3c(c2-c2ccccc2)OCCO3)n1)C(=O)O', 'IC50', '< 1 µM'),
  ('CC(C)(NC(=O)Cc1cc(-c2ccc(Cl)cc2-c2ccccc2)ccn1)C(=O)O', 'IC50', '1 to 10 µM'),
  ('NC(=O)NCCC[C@@H](NC(=O)Cc1csc(-c2ccc(F)cc2)n1)C(=O)O', 'IC50', '10 to 100 µM'),
  ('O=C(Cc1csc(-c2cccc(Cl)c2)n1)N[C@@H](Cc1ccccc1)C(=O)O', 'IC50', '100 to 500 µM'),
  ('CC(C)(NC(=O)Cc1cccc(-c2ccc(Cl)cc2-c2ccc(F)cc2)c1)C(=O)O', 'IC50', '1 to 10 µM'),
  ('C[C@H](NC(=O)Cc1csc(-c2cccc(Br)c2)n1)C(=O)O', 'IC50', '10 to 100 µM'),
  ('C[C@H](NC(=O)Cc1csc(-c2ccccc2F)n1)C(=O)O', 'IC50', '100 to 500 µM'),
  ('Cc1cccc(-c2cc(Cl)ccc2-c2nc(CC(=O)NC(C)(C)C(=O)O)cs2)c1', 'IC50', '< 1 µM'),
  ('O=C(O)CNC(=O)Cc1cccc(-c2ccc(Cl)cc2Cl)c1', 'IC50', '10 to 100 µM'),
  ('CC(C)C[C@H](NC(=O)Cc1csc(-c2ccc(Cl)cc2Cl)n1)C(=O)O', 'IC50', '100 to 500 µM');

---

# TARGET_OR_TEST_SYSTEM: human cytosolic Serine Hydroxymethyl transferase 1 (SHMT1) (Homo sapiens (Human))
# ASSAY_TEXT: SHMT1 activity inhibition assay (serine production from glycine and CH2-THF, mass spectroscopy)
# STUDY_CONDITIONS: 60 minutes at room temperature
pIC50: −log10 of the molar value.
PROPERTY_MEASURED: pIC50

INSERT INTO measurements (structure, property_measured, result) VALUES
  ('NC(=O)Cc1cc(Cl)ccc1-c1nc(CC(=O)NCC(=O)O)cs1', 'pIC50', '3.30 to 4.00'),
  ('O=C(Cc1csc(-c2ccc(Cl)cc2)n1)N[C@@H](C(=O)O)c1ccccc1', 'pIC50', '3.30 to 4.00'),
  ('O=C(O)CNC(=O)Cc1csc(-c2ccc(Cl)c(-c3ccccc3)c2)n1', 'pIC50', '4.00 to 5.00'),
  ('CC(C)c1ccc(-c2nc(CC(=O)N[C@@H](Cc3ccccc3)C(=O)O)cs2)cc1', 'pIC50', '3.30 to 4.00'),
  ('CC(C)(NC(=O)Cc1csc(-c2ccc(Cl)cc2CC2CCC2)n1)C(=O)O', 'pIC50', '> 6.00'),
  ('CC(C)(NC(=O)Cc1csc(-c2ccc(Cl)cc2-c2cccc(C#N)c2)n1)C(=O)O', 'pIC50', '> 6.00'),
  ('CC(C)(NC(=O)Cc1csc(-c2ccc(Cl)cc2C2CCNCC2)n1)C(=O)O', 'pIC50', '4.00 to 5.00');
